target_under_test: E583M rat olfactory CNG channel (Rattus norvegicus, UniProt Q00195, E583M)
test_description: Excised inside-out patch recording, E583M CNG channel
Assay type: biochemical
measurement_parameters: read-out: K1/2 (concentration that gives half-maximal current), −50 mV, mean ± SD of three experiments
measurement_kind: EC50 (µM)
Write it as a number; the unit µM goes unstated.

Simply: Nc1nc2c(ncn2[C@@H]2O[C@@H]3COP(=O)(O)O[C@H]3[C@H]2O)c(=O)[nH]1 , E583M rat olfactory CNG channel (Rattus norvegicus, UniProt Q00195, E583M), EC50 = 32

====

target_under_test: WT rat olfactory CNG channel α subunit (Rattus norvegicus)
test_description: Excised inside-out patch recording, WT CNG channel
Format: biochemical
measurement_parameters: read-out: K1/2 (concentration that gives half-maximal current), +50 mV, mean ± SD of three experiments
measurement_kind: EC50 (nM)
Just the number please, in nM, no unit attached.

According to the records, this compound Nc1nc2c(ncn2[C@@H]2O[C@@H]3COP(=O)(O)O[C@H]3[C@H]2O)c(=O)[nH]1 displays EC50 of 1600

====

target_under_test: E583M rat olfactory CNG channel (Rattus norvegicus, UniProt Q00195, E583M)
test_description: Excised inside-out patch recording, E583M CNG channel
Assay type: biochemical
measurement_parameters: read-out: K1/2 (concentration that gives half-maximal current), +50 mV, mean ± SD of three experiments
measurement_kind: EC50

For Nc1nc2c(ncn2[C@@H]2O[C@@H]3COP(=O)(O)O[C@H]3[C@H]2O)c(=O)[nH]1 [cGMP] the molecule record lists EC50 as 28 µM

====

target_under_test: E583M rat olfactory CNG channel (Rattus norvegicus, UniProt Q00195, E583M)
Sequence (Q00195 1-664 E583M): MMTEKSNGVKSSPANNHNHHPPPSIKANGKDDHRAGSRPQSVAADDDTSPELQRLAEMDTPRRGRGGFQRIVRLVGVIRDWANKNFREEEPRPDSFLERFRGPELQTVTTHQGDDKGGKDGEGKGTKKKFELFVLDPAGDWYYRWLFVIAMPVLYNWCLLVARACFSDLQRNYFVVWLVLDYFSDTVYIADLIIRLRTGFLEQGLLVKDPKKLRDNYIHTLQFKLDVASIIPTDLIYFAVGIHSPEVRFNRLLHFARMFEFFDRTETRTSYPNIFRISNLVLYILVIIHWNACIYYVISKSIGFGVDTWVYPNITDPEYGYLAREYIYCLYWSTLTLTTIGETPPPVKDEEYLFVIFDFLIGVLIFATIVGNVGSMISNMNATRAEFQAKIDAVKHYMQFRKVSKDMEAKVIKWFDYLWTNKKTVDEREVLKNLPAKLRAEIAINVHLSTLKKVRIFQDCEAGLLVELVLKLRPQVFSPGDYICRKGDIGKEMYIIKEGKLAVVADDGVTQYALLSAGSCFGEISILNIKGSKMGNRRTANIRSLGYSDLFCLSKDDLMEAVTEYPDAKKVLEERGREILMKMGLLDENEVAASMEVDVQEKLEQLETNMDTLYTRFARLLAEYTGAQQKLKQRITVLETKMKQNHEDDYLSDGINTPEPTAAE
test_description: Excised inside-out patch recording, E583M CNG channel
Assay type: biochemical
measurement_parameters: read-out: K1/2, +50 mV, experiment shown in Fig. 2
measurement_kind: pEC50
Formally, pEC50 is defined as -log10 of the concentration c, with c in mol/L.

The reported value for Nc1nc2c(ncn2[C@@H]2O[C@@H]3COP(=O)(O)O[C@H]3[C@H]2O)c(=O)[nH]1 in terms of pEC50 is 4.60

# credit: paper PMC2233745
